Data origin, for the record: PubChem BioAssay (NCI)

assay_notes: NCI Yeast Anticancer Drug Screen. Data for the rad50 strain (AID 155)
conditions: S. cerevisiae rad50 strain growth inhibition; at 11.0 µM; stronger effect = higher value
This is part of a sample that, as a whole, favours compounds with a hit. Of some 79,000 tested, about 15% had one in any assay.
Label T when growth inhibition is at or above 30%; otherwise label F.

Reference set, count: 4
compound | category_label
CCOC(=O)[C@]1(Br)CC[C@@]1(Br)C(=O)OCC | F
CCOC(=O)Nc1ccc2c(c1)Cc1ccccc1-2 | F
COC(=O)c1ccc2c(c1)Cc1ccccc1-2 | F
CC1(C)C(C=O)=CCC1CC(N)=O (stereo unspecified) | F

Ask: Assess whether reported growth inhibition for `S=c1nc(Cl)cc2[nH]c(Cl)cn12` sits at 30% or higher.
Reply: F

Ask: Assess whether reported growth inhibition for Cc1cc(O)c2c(c1O)C(=O)C13C(=C2O)C(=O)C2C(O)C1C1C(O)C3C(=O)C3=C(O)c4c(O)cc(C)c(O)c4C(=O)C321 (stereo unspecified) sits at 30% or higher.
Reply: T
